EXPERIMENT SUMMARY: Aqueous solubility in phosphate buffered saline at pH 7.4 after 24 hrs
Format: physicochemical
TEST READOUT: solubility at 24 h (µM)

{"SMILES REPRESENTATION": "N#C/C(=C\\c1ccc([N+](=O)[O-])s1)c1nc2cccnc2[nH]1", "READING UNIT": "µM", "solubility at 24 h": 0.5}
{"SMILES REPRESENTATION": "N#C/C(=C\\c1ccccn1)c1nc2ccccc2o1", "READING UNIT": "µM", "solubility at 24 h": 23}

P. N#C/C(=C\c1ccc([N+](=O)[O-])o1)c1nc2cccnc2[nH]1
Q. N#C/C(=C\c1ccccn1)c1nc2cccnc2[nH]1
R. N#C/C(=C\c1ccc([N+](=O)[O-])o1)c1nc2ccccc2s1
S. N#C/C(=C\c1ccccn1)c1nc2ccccc2s1
Exam item: list the entries in increasing order of solubility at 24 h. Return value: ordered labels per request.
R, P, S, Q
(R: 0.7 µM, P: 1.4 µM, S: 2 µM, Q: 28 µM)

* * *

EXPERIMENT SUMMARY: Aqueous solubility in phosphate buffered saline at pH 7.4 after 24 hrs
Format: physicochemical
TEST READOUT: solubility at 24 h

Reported solubility at 24 h ( N#C/C(=C\c1ccc([N+](=O)[O-])s1)c1nc2ccccc2s1 ) = < 0.1 µM

The recorded solubility at 24 h for N#C/C(=C\c1ccc([N+](=O)[O-])o1)c1nc2ccccc2o1 is < 0.1 µM

Please fill in: solubility at 24 h reported for N#C/C(=C\c1ccc([N+](=O)[O-])s1)c1nc2ccccc2o1 = < 0.1 µM
